FYI, the data here is from the C3SDB collision cross section collection.

Conditions: [M+Na]+; instrument: DT; single field, calibrated with ESI Low Concentration Tuning Mix (Agilent)
PROPERTY: collision cross section (N2)
Include the unit after the number when you answer.

Some entries whose results are on file:
Nc1nc(=O)c2nccnc2[nH]1 ... 143.4 Å²
CCCCC/C=C\C/C=C\CCCCCCCC(=O)O [LINOLEATE] ... 177 Å²
COc1cc(C(O)CN)ccc1O (stereo not given) ... 155 Å²
O=c1nc[nH]c2c1ncn2[C@@H]1O[C@H](CO)[C@@H](O)[C@H]1O ... 170.8 Å²

Name the recorded collision cross section (N2) of the item O=C(O)c1c[nH]c(=O)[nH]c1=O [URACIL 5-CARBOXYLATE] in your answer.
139.8 Å²
